Let's look at some compounds and their measured GI50.
- Tested on: NCI-H460 lung

compound: O=C(Oc1ccc([N+](=O)[O-])cc1)N1CCN(Cc2cccc(Oc3ccccc3)c2)CC1
GI50: 99.3 µM

compound: N#C/C(=C/C=C(\Cl)c1ccc(Cl)cc1)C(N)=O
GI50: 4.65 µM

compound: N#CC1C(=N)Cc2ccccc2-c2ccccc21 (centres undefined)
GI50: 3.92 µM

compound: CS(=O)(=O)N1CCN(Cc2cc3nc(-c4cccc5[nH]ncc45)nc(N4CCOCC4)c3s2)CC1 (tested in a mixture with another compound)
GI50: 0.0796 µM

compound: CCCCCCCCOc1ccc(/C=N/Nc2cc(C)nc3ccc(Cl)cc23)cc1
GI50: 2.01 µM

compound: COc1cccc(/C=C/C(=O)c2ccc(Cl)cc2Cl)c1OC
GI50: 8.37 µM

compound: C/C=C(\C)C(=O)O[C@@H]1C(O)[C@H]2OC(COC(=O)CCC(=O)CCCCCC[C@H](CCCCC)O[C@@H]3OC(C)[C@H](OC(C)=O)C(O)[C@H]3O2)[C@H]1OC(=O)/C=C/c1ccccc1 (some centres undefined)
GI50: < 0.01 µM

compound: COc1ccc(C2NCCc3c2[nH]c2ccccc32)cc1CN1CCN(c2ccc(F)cc2)CC1 (centres undefined)
GI50: 1.85 µM

compound: O=C(Nc1cnn2ccc(N3CCC[C@@H]3c3cc(F)ccc3F)nc12)N1CC[C@H](O)C1
GI50: > 100 µM
